B1: MYL5 (parent)
chain: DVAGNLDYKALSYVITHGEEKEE

Variants of: B1
Assay: protein stability index of a GFP-peptide fusion (GPS, HEK-293T) (PSI 1-6); higher = more stable;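 note: lentivirally expressed fusions sorted by FACS into six bins by GFP to DsRed ratio, PSI derived from sequencing read proportions per bin multiplied by bin number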
Conditions: c terminus: native
READOUT KIND: protein stability index
Answers are plain numbers.

Reference set, count: 10
>>> experimental_result("DVAGNLDYKALSYVITHGEEMEE")
1.98
>>> experimental_result("DVAGNLDYKALSYVQTHGEEKEE")
2.17
>>> experimental_result("DVAGNLDYKALSYVTTHGEEKEE")
2.81
>>> experimental_result("DVAGNLDYKALSYVITMGEEKEE")
1.64
>>> experimental_result("DVAGNLDKKALSYVITHGEEKEE")
1.39
>>> experimental_result("DVAGNLDYKALSSVITHGEEKEE")
2.97
>>> experimental_result("DVAGNLDYKYLSYVITHGEEKEE")
1.22
>>> experimental_result("DVAGNLDYKALPYVITHGEEKEE")
2.46
>>> experimental_result("DVAGNLDYKAISYVITHGEEKEE")
1.93
>>> experimental_result("DVAGNLDYKALSYVITHGEEKEQ")
4.85

Record protein stability index per entry; entries follow.
1. DVAGNLDYKAESYVITHGEEKEE
2. DVAINLDYKALSYVITHGEEKEE
3. DVAGNLDYKALSYVITHGEMKEE
4. DVAGNEDYKALSYVITHGEEKEE

1. 2.64
2. 1.46
3. 1.77
4. 2.52

Record protein stability index per entry; entries follow.
1. DVAGNLDYKALSYVITHGEETEE
2. DVASNLDYKALSYVITHGEEKEE
3. DVAGNLDVKALSYVITHGEEKEE
4. DVAGNLDYKALRYVITHGEEKEE
5. DVAGNLDYKALSYVICHGEEKEE

2.05
2.09
2.62
1.99
1.53
